- protocol: gradient 5% acetonitrile 3 min, to 50% in 2 min, to 85% in 15 min, held 3 min, 100 µL/min
- condition-context: column: Zorbax Extend-C18 2.1 x 50 mm; eluents: water / acetonitrile, 0.1% formic acid
measurement-kind: RP-LC retention time (s)

# annotated cases, reported RP-LC retention time shown
[[record]]
compound = "O=C(Cc1csc(-c2ccccc2)n1)NCc1nc2ccccc2[nH]1"
value_measured = 647

[[record]]
compound = "Cc1cc(-c2nnc(C3CC3)o2)c(C)n1CC(=O)Nc1ccc(F)cc1"
value_measured = 792

[[record]]
compound = "CCCNc1cc(N2CCC(CCC(=O)NCc3c(C)nn(C)c3C)CC2)ncn1"
value_measured = 594

[[record]]
compound = "CCC1CCCCN1CCNC(=O)CCc1cc2ccc(C)cc2[nH]c1=O (stereo not given)"
value_measured = 621


[a] Cc1cc(C)cc(C(=O)Nc2ccc3c(c2)Sc2ncccc2C(=O)N3C(C)C)c1
[b] CC(NC(=O)c1ccco1)c1nc(-c2ccc3c(c2)ncn3C2CCCC2)no1 (stereo not given)
**Query** Lab log: flag the item ( a or b ) with the smaller RP-LC retention time figure. // caller expects the label of the chosen entry
**Result** b
(b: 674 s, a: 1030 s)

[A] O=C(NCCc1ccccc1)C1CCN(C(=O)c2ncn3c2COC(c2ccccc2)C3)CC1 (stereo not given)
[B] Cc1ccc(N2CN(CC(=O)NCCC3=CCCCC3)S(=O)(=O)c3cccnc32)cc1
**Query** # argmax over RP-LC retention time for candidates A and B // caller expects the label of the chosen entry
**Result** B
(B: 1050 s, A: 708 s)

---

- protocol: gradient 5% acetonitrile 3 min, to 50% in 2 min, to 85% in 15 min, held 3 min, 100 µL/min
- condition-context: column: Zorbax Extend-C18 2.1 x 50 mm; eluents: water / acetonitrile, 0.1% formic acid
measurement-kind: RP-LC retention time (s)

[[record]]
compound = "CS(=O)(=O)c1ccc2nc(NC(=O)c3ccc([N+](=O)[O-])o3)sc2c1"
value_measured = 679

[[record]]
compound = "O=C(COc1cccc(C(F)(F)F)c1)NCCCn1nc(-c2ccncc2)ccc1=O"
value_measured = 601

[[record]]
compound = "Cc1nc(-c2ccc(C(=O)N3CC(=O)Nc4ccccc43)cc2)no1"
value_measured = 668


[A] CN1CCN(CCNC(=O)C2CCCN(c3ncnc4c3nc3n4CCCCC3)C2)CC1 (stereo not given)
[B] COc1ccccc1Nc1c(-c2ccccc2)nc2cnccn12
**Query** # argmax over RP-LC retention time for candidates A and B // caller expects the label of the chosen entry
**Result** B

---

- protocol: gradient 5% acetonitrile 3 min, to 50% in 2 min, to 85% in 15 min, held 3 min, 100 µL/min
- condition-context: column: Zorbax Extend-C18 2.1 x 50 mm; eluents: water / acetonitrile, 0.1% formic acid
measurement-kind: RP-LC retention time (s)

# annotated cases, reported RP-LC retention time shown
[[record]]
molecule = "CCCn1c(C)cnc1CC1CCN(S(=O)(=O)c2ccc3c(c2)OCCO3)CC1"
value_measured = 560

[[record]]
molecule = "CCOc1cc(-c2nc(C3CC(=O)N(c4ccc(C)cc4)C3)no2)cc(OCC)c1OCC (stereo not given)"
value_measured = 1150

[[record]]
molecule = "Cc1nc2ccccc2nc1N1CCCC1"
value_measured = 680


[I] O=C(c1ccc2c(c1)OCO2)N1CCC2(CC1)CC(O)CCO2 (stereo not given)
[II] CCCn1c(-c2cccc(C(=O)NCc3ccc(Br)cc3)c2)nc2cccnc21
**Query** # argmax over RP-LC retention time for candidates I and II // caller expects the label of the chosen entry
**Result** II

[1] CC(C)c1ccc(NC(=O)C2CCN(S(=O)(=O)c3cn(C(C)C)cn3)CC2)cc1
[2] COCCCNC(=O)c1cccnc1N1CCNC(c2ccccc2)C1 (stereo not given)
**Query** # argmax over RP-LC retention time for candidates 1 and 2 // caller expects the label of the chosen entry
**Result** 1
